tested.target: Somatostatin receptor type 5 (Homo sapiens, UniProt P35346)
Sequence (P35346 whole entry): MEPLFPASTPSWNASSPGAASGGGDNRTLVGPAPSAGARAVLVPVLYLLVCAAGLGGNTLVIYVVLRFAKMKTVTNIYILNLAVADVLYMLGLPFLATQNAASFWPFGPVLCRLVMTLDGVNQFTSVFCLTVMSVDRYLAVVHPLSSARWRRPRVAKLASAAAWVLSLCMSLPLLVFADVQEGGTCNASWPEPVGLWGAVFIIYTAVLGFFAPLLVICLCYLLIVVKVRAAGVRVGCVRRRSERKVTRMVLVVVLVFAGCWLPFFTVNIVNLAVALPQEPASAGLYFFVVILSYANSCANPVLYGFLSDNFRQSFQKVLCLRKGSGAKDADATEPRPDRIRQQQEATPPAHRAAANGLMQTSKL
measure.name: Ki (µM)
Reply with just the number (in µM).

Incoming: Give its Ki value. Item: `NCCCCCOC[C@@H]1[C@@H](OCc2ccccc2)[C@H](OCc2ccccc2)[C@@H](OCc2ccccc2)CN1CCc1c[nH]c2ccccc12`
Outgoing: 5

----------
tested.target: Somatostatin receptor type 4 (Homo sapiens)
Sequence (P31391 whole entry): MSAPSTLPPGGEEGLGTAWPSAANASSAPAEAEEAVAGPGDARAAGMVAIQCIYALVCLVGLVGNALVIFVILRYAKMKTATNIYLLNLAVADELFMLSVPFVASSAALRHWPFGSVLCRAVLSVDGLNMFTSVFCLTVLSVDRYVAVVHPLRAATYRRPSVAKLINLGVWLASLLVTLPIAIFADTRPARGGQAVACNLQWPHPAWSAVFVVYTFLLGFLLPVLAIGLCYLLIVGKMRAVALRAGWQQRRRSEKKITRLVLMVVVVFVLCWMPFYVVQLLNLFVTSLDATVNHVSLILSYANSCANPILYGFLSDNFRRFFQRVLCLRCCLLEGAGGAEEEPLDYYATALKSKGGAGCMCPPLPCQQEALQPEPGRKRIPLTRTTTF
measure.name: pKi
Interpret pKi as the negative base-10 log of the concentration measured in mol/L.

Incoming: Give its pKi value. Item: `NCCCCCOC[C@@H]1[C@@H](OCc2ccccc2)[C@H](OCc2ccccc2)[C@@H](OCc2ccccc2)CN1CCc1c[nH]c2ccccc12`
Outgoing: 5.36
